Provenance of the data: PubChem BioAssay AID2057

- experimental_system: Induced myeloid leukemia cell differentiation protein Mcl-1 (Homo sapiens) (UniProt Q07820)
- Sequence (Q07820 whole entry, looked up): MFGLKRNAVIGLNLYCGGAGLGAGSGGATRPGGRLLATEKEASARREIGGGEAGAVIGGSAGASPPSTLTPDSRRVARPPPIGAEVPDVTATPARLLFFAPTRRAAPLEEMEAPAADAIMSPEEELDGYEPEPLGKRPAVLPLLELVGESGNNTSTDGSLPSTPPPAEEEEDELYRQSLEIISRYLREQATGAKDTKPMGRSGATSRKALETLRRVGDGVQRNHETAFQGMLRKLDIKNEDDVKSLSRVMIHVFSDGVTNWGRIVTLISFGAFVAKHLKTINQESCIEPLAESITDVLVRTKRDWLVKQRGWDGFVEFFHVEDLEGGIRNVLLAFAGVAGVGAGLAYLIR
- experiment: MCL1-BIM peptide interaction disruptors – biochemical, fluorescence polarization, primary screen (AID 2057);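 further: 0% = DMSO wells and 100% = unlabeled Bim-BH3 peptide control; higher means more loss of mP so more displacement of Bim peptide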
- condition_notes: GST-MCL1 / FITC-Bim-BH3 fluorescence polarization; at 10.9 µM; active compounds read high
Out of some 320,000 compounds screened, about 2,100 (0.66%) were called active. The list comes from a sample in which actives are over-represented; it also holds close analogues and randomly drawn compounds.
Each entry below carries its reported inhibition.
readout: inhibition (%)

>>> value_observed("CN(C)c1ccc(Nc2c3c4c(cccc4n(C)c2=O)C(=O)c2ccccc2-3)cc1")
55.2
>>> value_observed("O=C(O)c1cc(S(=O)(=O)N2CCCCCC2)c(Cl)cc1Cl")
4.06
>>> value_observed("COc1ccccc1N1CCN(S(=O)(=O)CCNC(=O)c2ccc(OC(C)C)cc2)CC1")
-5.21
>>> value_observed("CC(=O)NC(C)(C)C1CC=C(C)/C(=N\\O)C1 (configuration not stated)")
-0.57
>>> value_observed("O=C(OCC1O[C@@H](OC(=O)c2cc(O)c(O)c(O)c2)[C@@H](OC(=O)c2cc(O)c(O)c(O)c2)[C@@H](OC(=O)c2cc(O)c(O)c(O)c2)[C@@H]1OC(=O)c1cc(O)c(O)c(O)c1)c1cc(O)c(O)c(O)c1 (some centres not stated)")
74.8
>>> value_observed("CC1(C)NC(=O)N(CC(=O)Nc2cc(C(F)(F)F)cc(C(F)(F)F)c2)C1=O")
-2.94
>>> value_observed("O=C(NCCc1ccccc1)C1CC1")
3.41
>>> value_observed("CC1(C)Cc2c(C#N)c(SCc3nc4ccccc4[nH]3)nc(N3CCOCC3)c2CO1")
3.45
>>> value_observed("C=C1c2c(Cl)ccc(O)c2C(O)=C2C(=O)[C@]3(O)C(O)=C(C(N)=O)C(=O)[C@@H](N(C)C)[C@@H]3[C@@H](O)C12 (some centres not stated)")
87.2
>>> value_observed("CC(Oc1ccccc1)C(=O)Nc1c2c(nn1-c1ccccc1)CS(=O)C2 (configuration not stated)")
3.14
>>> value_observed("Cc1cccn2c(=O)c3cc(C(=O)NCCN4CCOCC4)c(=N)n(Cc4cccnc4)c3nc12")
46.7
>>> value_observed("CCc1cc(CNC(=O)CC2C(=O)NCCN2Cc2ccccc2C(F)(F)F)on1 (configuration not stated)")
17.3
